All values here come from paper PMC7961048.

- system_tested: T1, full-length human 14-3-3τ fused to the C terminus of MBP (human, UniProt P27348 1-245)
- T1 chain: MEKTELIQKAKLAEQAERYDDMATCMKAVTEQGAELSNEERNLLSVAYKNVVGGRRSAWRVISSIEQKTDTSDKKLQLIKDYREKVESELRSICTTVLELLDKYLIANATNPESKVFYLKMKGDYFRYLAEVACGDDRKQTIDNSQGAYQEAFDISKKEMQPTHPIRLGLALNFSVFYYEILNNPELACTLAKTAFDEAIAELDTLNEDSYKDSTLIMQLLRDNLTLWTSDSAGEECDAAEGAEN
- procedure_text: FP
Non-standard residues stand in square brackets, D forms with d. No end group written: not given here. *: point of attachment. Biotin = O=C1N[C@H]2[C@H](CS[C@H]2CCCCC(=O)*)N1; pT = C[C@@H](OP(=O)(O)O)[C@H](N)C(=O)O; ttds = NCCCOCCOCCOCCCNC(=O)CCC(=O)*
parameter: pKd
Keep in mind that pKd stands for -log10 of concentration in molar terms.

Look at this binder and give its reported pKd. {Biotin-ttds}-RRVRKLPS[pT]TL [RSK1 phospho-PBM peptide RSK1_-2P] 6.30

Look at this binder and give its reported pKd. {Biotin-ttds}-RRVRKLPST[pT]L [RSK1 phospho-PBM peptide RSK1_-1P] 6.10

Look at this binder and give its reported pKd. {Biotin-ttds}-SSRTRRE[pT]QL [HPV16 E6 phospho-PBM peptide p16E6] 3.84

Look at this binder and give its reported pKd. {Biotin-ttds}-RLQRRRE[pT]QV [HPV18 E6 phospho-PBM peptide p18E6] 4.42
